Measured speed of sound accompanies every entry in the list below.
method-summary: mn = molality of the nth substance listed, in mol/kg
cond: 308.15 K; 101 kPa; Liquid; Sing-around technique in a fixed-path interferometer; m1 = 0.9
readout-kind: speed of sound (m/s)

[
  {
    "compound": "O=P([O-])(O)O.[Li+] [lithium dihydrogen phosphate] + O",
    "readout-kind": "speed of sound",
    "observed-result": 1593.1
  },
  {
    "compound": "O=P([O-])(O)O.[Na+] [sodium dihydrogen phosphate] + O",
    "readout-kind": "speed of sound",
    "observed-result": 1608.1
  },
  {
    "compound": "O=P([O-])([O-])O.[Na+].[Na+] [disodium hydrogen phosphate] + O",
    "readout-kind": "speed of sound",
    "observed-result": 1685.8
  }
]

Attribution: the NIST ThermoML archive (doi:10.1016/j.jct.2013.01.012)
